# TESTED_ON: Nuclear factor erythroid 2-related factor 2 (Mus musculus) (UniProt Q60795)
# Sequence (Q60795 whole entry): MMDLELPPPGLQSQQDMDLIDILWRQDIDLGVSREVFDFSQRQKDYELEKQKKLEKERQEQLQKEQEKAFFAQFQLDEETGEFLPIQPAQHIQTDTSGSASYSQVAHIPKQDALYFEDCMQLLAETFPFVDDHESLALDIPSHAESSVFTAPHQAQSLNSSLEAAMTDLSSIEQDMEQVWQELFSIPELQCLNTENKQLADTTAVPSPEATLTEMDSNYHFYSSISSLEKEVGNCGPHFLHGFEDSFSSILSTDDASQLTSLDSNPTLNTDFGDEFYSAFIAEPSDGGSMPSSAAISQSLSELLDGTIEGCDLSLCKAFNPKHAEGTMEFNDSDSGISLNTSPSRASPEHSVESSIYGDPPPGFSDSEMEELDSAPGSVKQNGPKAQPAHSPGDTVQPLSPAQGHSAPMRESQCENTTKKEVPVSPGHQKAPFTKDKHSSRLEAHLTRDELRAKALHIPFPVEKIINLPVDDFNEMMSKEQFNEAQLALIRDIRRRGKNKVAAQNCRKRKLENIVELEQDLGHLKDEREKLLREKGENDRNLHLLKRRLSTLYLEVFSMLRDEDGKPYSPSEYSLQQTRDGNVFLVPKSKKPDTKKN
# ASSAY_DETAILS: Activation of Nrf2 in mouse Hepa1c1c7 cells assessed as increase in NQO1 activity at 0.8 uM
# Type: cell-based
# EXPERIMENTAL_CONDITIONS: filed as activator
Activity by entry:
Reply with just the number.

Below are worked cases with known answers.
NS(=O)(=O)c1ccc(-n2c(SCC(=O)Nc3cccnc3Cl)nc3c(I)cc(I)cc3c2=O)cc1 :: 0.98
NS(=O)(=O)c1ccc(-n2c(SCC(=O)Nc3ccc(F)cc3)nc3c(I)cc(I)cc3c2=O)cc1 :: 1
NS(=O)(=O)c1ccc(-n2c(SCC(=O)Nc3ccncc3)nc3c(I)cc(I)cc3c2=O)cc1 :: 1

## Task Look up Activity: NS(=O)(=O)c1ccc(-n2c(SCC(=O)Nc3ccc(Cl)cn3)nc3c(I)cc(I)cc3c2=O)cc1
## Result 0.99
